Attribute: growth
Tested on: MDA-MB-231 breast
assay.name: NCI-60 one-dose screen, 48 h (100 = growth as untreated, 0 = no growth, -100 = all killed)
measurement.parameters: 10 µM unless noted
Method: Cells are grown in 96 well plates and exposed to the test compound for 48 hours. Compounds are tested at a single concentration, which is 10^-5 M for most compounds. The reported endpoint is percent growth (GI% or GIPRCNT), where numbers from 0 - 100% represent growth inhibition, and numbers from -100% - 0 represent cell death. For example, a value of 40 represents 60% growth inhibition. A value of 0 means no net growth occurred over the course of the experiment. […]
The panel holds about 83,000 compounds, 20% with a hit somewhere; the sample as a whole holds those more often. Calls of active or inactive are those of the source. Rule for the calls: active = growth percent below 10; inactive = the rest.
readout.label: growth

[[record]]
molecule = "CC(C)Sc1nc(Cl)c(C#N)c(-c2ccc(F)cc2)n1"
recorded_value = "111% (inactive)"

[[record]]
molecule = "COc1cccc(-c2nc3cc(NC(=O)c4ccc(Cl)c(C#N)c4)ccc3o2)c1"
recorded_value = "8.99% (active)"

[[record]]
molecule = "Cc1nn2c(/C=C3/C(=O)Nc4cc(Cl)ccc43)c(-c3ccccc3)nc2s1"
recorded_value = "8.57% (active)"

[[record]]
molecule = "C[N+]1(C)C2CC[C@@H]1CC(OC(=O)C(O)c1ccccc1)C2 (some centres undefined)"
recorded_value = "107% (inactive)"

[[record]]
molecule = "Nc1nc(Nc2ccccc2SSc2ccccc2Nc2nc(N)nc(-c3cccc(Cl)c3)n2)nc(-c2cccc(Cl)c2)n1"
recorded_value = "74.8% (inactive)"

[[record]]
molecule = "Cc1ccc(OCC(=O)Nc2ccc(Oc3ccccc3)cc2)c([N+](=O)[O-])n1"
recorded_value = "85.4% (inactive)"

[[record]]
molecule = "COc1ccc2nc(N/N=C(\\C)c3ccccn3)cc(C)c2c1"
recorded_value = "-63.1% (active)"

[[record]]
molecule = "O=CN1N=C(c2ccc(Cl)cc2)CC1c1cccc(Nc2ccnc3cc(Cl)ccc23)c1 (centres undefined)"
recorded_value = "30.6% (inactive)"

[[record]]
molecule = "Cc1ccc(NC(=O)c2sc3nc4c(cc3c2N)C(=O)CCC4)cc1"
recorded_value = "78% (inactive)"

[[record]]
molecule = "COc1ccc(Cl)cc1Nc1nc(C(F)(F)F)ccc1C(=O)N/N=C/c1c(Cl)cccc1Cl"
recorded_value = "46.3% (inactive)"

[[record]]
molecule = "COc1ccc(C2=NN(C(C)=O)C(c3cccc(Nc4ccnc5cc(Cl)ccc45)c3)C2)cc1 (centres undefined)"
recorded_value = "63% (inactive)"

[[record]]
molecule = "O=C(/C=C/c1c(-c2ccccc2)[nH]c2ccccc12)S(=O)(=O)c1ccccc1"
recorded_value = "63.3% (inactive)"

[[record]]
molecule = "Nc1nc(Nc2ccccc2SSc2ccccc2Nc2nc(N)nc(-c3ccc(I)cc3)n2)nc(-c2ccc(I)cc2)n1"
recorded_value = "55% (inactive)"

[[record]]
molecule = "COC(=O)N/N=C/c1coc2ccc(Cl)cc2c1=O"
recorded_value = "71.3% (inactive)"

[[record]]
molecule = "Clc1ccc(C2c3ccccc3-c3nccn32)c(Cl)c1 (centres undefined)"
recorded_value = "84.1% (inactive)"

[[record]]
molecule = "O=C(/C=C/c1cccc(Nc2ccnc3cc(Cl)ccc23)c1)c1ccc(Cl)cc1"
recorded_value = "60.4% (inactive)"

[[record]]
molecule = "Nc1nc(SCc2cccnc2)c2ncn(C3OC(CO)C(O)C3O)c2n1 (centres undefined)"
recorded_value = "94.7% (inactive)"

[[record]]
molecule = "Cc1c2oc3c(C)ccc(C(=O)OC(C)C4NC(=O)C(C(C)C)N(C)C(=O)CN(C)C(=O)C5CCCN5C(=O)C(C(C)C)NC4=O)c3nc-2c(C(=O)OC(C)C2NC(=O)C(C(C)C)N(C)C(=O)CN(C)C(=O)C3CCCN3C(=O)C(C(C)C)NC2=O)c(N)c1=O (centres undefined)"
recorded_value = "3.61% (active)"

[[record]]
molecule = "CCCCCN(CCCCC)CCCNc1c2c(nc3ccc(Cl)cc13)CCCC2"
recorded_value = "18.5% (inactive)"

[[record]]
molecule = "Oc1ccccc1/C=N/N1CCCCCC1"
recorded_value = "96.1% (inactive)"

[[record]]
molecule = "CC(C)C[C@H](NC(=O)/C=C/Cn1ccc2ccccc2c1=O)B(O)O"
recorded_value = "35.1% (inactive)"

[[record]]
molecule = "NC(=N\\N=C/Cc1ccccc1)/C(N)=N\\N=C\\Cc1ccccc1"
recorded_value = "97.7% (inactive)"

[[record]]
molecule = "COc1cc(/C=C/c2cc(/C=C/c3ccc(O)c(OC)c3)n(C(=O)Cc3ccccc3)n2)ccc1O"
recorded_value = "15.2% (inactive)"

[[record]]
molecule = "CCOC(=O)C(C(=O)OCC)C1CCCCC1"
recorded_value = "108% (inactive)"

[[record]]
molecule = "N#CSCC1CC(O)(c2ccccc2)C(c2ccccc2)C(c2ccc(Cl)cc2)O1 (centres undefined)"
recorded_value = "-52.2% (active)"

[[record]]
molecule = "COc1ccc2c(c1)sc1nc(-c3ccc(N(C)C)cc3)cn12"
recorded_value = "122% (inactive)"

[[record]]
molecule = "COc1cc(/C=C/C(=O)c2c(C)n([O-])c3ccc(Cl)cc3[n+]2=O)cc(OC)c1OC"
recorded_value = "78.5% (inactive)"

[[record]]
molecule = "O=C(CN1CCN(c2ccc(Cl)cc2)CC1)N1CCN(c2nnc(-c3ccccc3)c(-c3ccccc3)n2)CC1"
recorded_value = "64.5% (inactive)"

[[record]]
molecule = "COC(=O)[C@H](Cc1cn(C)cn1)NC(=O)[C@H](C)NC(=O)Nc1cc(C(F)(F)F)cc(C(F)(F)F)c1"
recorded_value = "-76.4% [100 µM] (active)"

[[record]]
molecule = "COC(=O)C1=CCC(n2cnc3c(N)ncnc32)O1 (centres undefined)"
recorded_value = "98.5% (inactive)"

[[record]]
molecule = "COc1cc(C(=O)c2cc3c(cc2C)OCO3)cc(OC)c1OC"
recorded_value = "23.3% (inactive)"

[[record]]
molecule = "CCCCCN1C(=O)CCC1=O"
recorded_value = "109% (inactive)"

[[record]]
molecule = "Cc1ccc(/C=C/C(=O)c2ccc(F)cc2)s1"
recorded_value = "105% (inactive)"

[[record]]
molecule = "CC1CN(/N=C/c2ccc([N+](=O)[O-])o2)C(=N)O1 (centres undefined)"
recorded_value = "102% (inactive)"

[[record]]
molecule = "Nc1ccc2c(c1)Cc1cc(Cl)c(Cl)cc1-2"
recorded_value = "52.5% (inactive)"

[[record]]
molecule = "Cc1csc(C#Cc2cncc(O)c2)n1"
recorded_value = "107% (inactive)"

[[record]]
molecule = "CO[C@H]1/C=C/O[C@@]2(C)Oc3c(C)c(O)c4c(O)c(c(/C=N/N5C(C)CN(Cc6ccc(C#N)cc6)CC5C)c(O)c4c3C2=O)NC(=O)/C(C)=C\\C=C\\[C@H](C)[C@H](O)[C@@H](C)[C@@H](O)[C@@H](C)[C@H](OC(C)=O)[C@@H]1C (some centres undefined)"
recorded_value = "90.3% (inactive)"

[[record]]
molecule = "N#Cc1ccc(-c2csc(Nc3ccc4nc5n(c(=O)c4c3)CCC5)n2)cc1"
recorded_value = "104% (inactive)"

[[record]]
molecule = "ICCC(c1ccccc1)(c1ccccc1)c1ccccc1"
recorded_value = "41.7% (inactive)"

